system: MOLM16 cells; test: Growth inhibition, MTS assay, MOLM16; assay type: cell-based, Human; settings: Homo sapiens, MOLM16, 72 h, MTS cell viability, read-out: MOLM 16 ED50
endpoint: IC50 (nM)

(I) CCn1c(N2CCC(N)CC2)nc2c(C#N)c(Br)c(Br)cc21
(II) CCn1c(NC2CCC(N)CC2)nc2c([N+](=O)[O-])c(Br)c(Br)cc21 (stereo not shown)
(III) CCn1c(N2CC[C@H](N)C2)nc2c(C#N)c(Br)c(Br)cc21
(IV) CC(C)n1c(NC2CCNC2)nc2c(C#N)c(Br)c(Br)cc21 (stereo not shown)
Rank the 4 compounds: largest IC50 first, smallest last. Give the labels in the order specified.
II, I, III, IV
(II: 900 nM, I: 320 nM, III: 100 nM, IV: 60 nM)

* * *

target: UniProt:P36888; assay: ADP-Glo Kinase Assay, Flt3 wt; type: biochemical; details: 1 μM compound; read-out: Flt3wt % INH (1 μM)
endpoint: inhibition at 1 µM

Example results:
molecule: CC(C)n1c(NCCOCCN)nc2c([N+](=O)[O-])c(Br)c(Br)cc21 [Example 22J]
inhibition at 1 µM: < 5%
//
molecule: CCCn1c(NCC(O)CN)nc2c([N+](=O)[O-])c(Br)c(Br)cc21 (stereo not drawn)
inhibition at 1 µM: < 5%

# get_value(readout= inhibition at 1 µM, system= UniProt:P36888) for CC(C)n1c(NCC(O)CN)nc2c([N+](=O)[O-])c(Br)c(Br)cc21 (stereo not drawn)
< 5%

* * *

Test system: Jeko-1 cells
Assay: Growth inhibition, MTS assay, Jeko-1
Format: cell-based, Human
Conditions: Homo sapiens, JeKo-1; 72 hours, MTS cell viability; read-out: Jeko-1 ED50
Excerpt: The following cell lines, were obtained and used in tests as outlined below: • Human myelomonocytic, biphenotypic leukemia MV4-11 cells (harboring a Flt3-ITD mutation); • Human Acute Myeloid Leukemia MOLM16 cells; • Human Acute Myeloid Leukemia MOLM13 cells (harboring a Flt3-ITD mutation); • Human Myeloid Leukemia KG-1 cells; • Human erythroleukemia HEL92 cells; • Human mantle cell lymphoma Jeko-1 cells; • Human hepatocellular carcinoma HepG2 cells; and • Human colon adenocarcinoma SW-480 cells. […]
Structures can show the parent of a compound that is named as a salt.
Quick reference for pIC50 among some molecules
The quantity pIC50 is defined as the negative base-10 logarithm of the molar concentration.

molecule: CCn1c(N2CCNCC2)nc2c([N+](=O)[O-])c(Br)c(Br)cc21 [Example 1A, hydrochloride]
pIC50: 6.10

molecule: CC(C)n1c(N2CC[C@@H](N)C2)nc2c(C#N)c(Br)c(Br)cc21
pIC50: 6.15

molecule: CCn1c(N2CCNCC2)nc2c(C#N)c(Br)c(Br)cc21
pIC50: 5.85

molecule: CC(C)Cn1c(N2CCCC(N)C2)nc2c([N+](=O)[O-])c(Br)c(Br)cc21 (stereo not drawn)
pIC50: 5.54

molecule: O=[N+]([O-])c1c(Br)c(Br)cc2c1nc(N1CCNCC1)n2C1CC1 [Example 21A, trifluoroacetate]
pIC50: 6.22

Look at this molecule and give its reported pIC50. CC(C)Cn1c(NCC(O)CN)nc2c([N+](=O)[O-])c(Br)c(Br)cc21 (stereo not drawn)
5.47

* * *

target: DYRK1 (Homo sapiens (Human), UniProt Q13627); experiment: ADP-Glo Kinase Assay, DYRK1; format: biochemical; conditions: 1 μM compound; read-out: DYRK1A % INH (1 μM)
Structures can show the parent of a compound that is named as a salt.
endpoint: inhibition at 1 µM (%)

molecule: COC(CN)CNc1nc2c(C#N)c(Br)c(Br)cc2n1C(C)C (stereo not drawn) [Example 22AC]
measured: 16

molecule: CCn1c(N2CCNC(C)C2)nc2c([N+](=O)[O-])c(Br)c(Br)cc21 (stereo not drawn) [Example 22X]
measured: 39

molecule: NCCCNc1nc2c([N+](=O)[O-])c(Br)c(Br)cc2[nH]1 [Example 1D]
measured: 16

molecule: CCn1c(N2CCC[C@H](N)C2)nc2c(C#N)c(Br)c(Br)cc21 [Example 1DQ]
measured: 38

molecule: C#CCn1c(NCCCN)nc2c([N+](=O)[O-])c(Br)c(Br)cc21 [Example 2G, hydrochloride]
measured: 25

(1) CC(C)=CCn1c(N2CCNCC2)nc2c([N+](=O)[O-])c(Br)c(Br)cc21 [Example 2E, hydrochloride]
(2) CCCn1c(N2CCCC(N)C2)nc2c([N+](=O)[O-])c(Br)c(Br)cc21 (stereo not drawn) [Example 1U]
(3) CC(C)n1c(NCC2CNCCO2)nc2c(C#N)c(Br)c(Br)cc21 (stereo not drawn) [Example 1BN]
(4) O=[N+]([O-])c1c(Br)c(Br)cc2c1nc(N1CCNCC1)n2C1CC1 [Example 21A, trifluoroacetate]
Rank entries according to their inhibition at 1 µM, from the largest number down. Give the labels in the order specified.
1, 4, 2, 3
(1: 72%, 4: 50%, 2: 35%, 3: 21%)

* * *

System: HepG2 cells
Assay: Growth inhibition, MTS assay, HepG2
Format: cell-based, Human
Settings: Homo sapiens, HepG2, 72 h, MTS cell viability, read-out: HepG2 ED50
Description: The following cell lines, were obtained and used in tests as outlined below: • Human myelomonocytic, biphenotypic leukemia MV4-11 cells (harboring a Flt3-ITD mutation); • Human Acute Myeloid Leukemia MOLM16 cells; • Human Acute Myeloid Leukemia MOLM13 cells (harboring a Flt3-ITD mutation); • Human Myeloid Leukemia KG-1 cells; • Human erythroleukemia HEL92 cells; • Human mantle cell lymphoma Jeko-1 cells; • Human hepatocellular carcinoma HepG2 cells; and • Human colon adenocarcinoma SW-480 cells. […]
pIC50: −log10 of the molar value.
endpoint: pIC50

compound: CCn1c(NC2CCNC2)nc2c([N+](=O)[O-])c(Br)c(Br)cc21 (stereo not shown) [Example 1AF]
pIC50: 5.74
--
compound: CCn1c(N2CCNCC2)nc2c(C(F)(F)F)c(Br)c(Br)cc21 [Example 9A]
pIC50: 5.82

(A) CC(O)Cn1c(N2CCNCC2)nc2c([N+](=O)[O-])c(Br)c(Br)cc21 (stereo not shown) [Example 1BS]
(B) CCn1c(N2CCNCC2C)nc2c([N+](=O)[O-])c(Br)c(Br)cc21 (stereo not shown) [Example 1AD]
I need your help: which of the pair A , B has higher pIC50? Your answer should be the label attached to the chosen record.
B

* * *

molecular target: CDK2/E (Homo sapiens (Human)); assay: ADP-Glo Kinase Assay, CDK2/E; assay type: biochemical; settings: 1 μM compound; read-out: CDK2/E % INH (1 μM)
endpoint: inhibition at 1 µM (%)

molecule: CC(C)n1c(N2CCCC(N)C2)nc2c([N+](=O)[O-])c(Br)c(Br)cc21 (centres unmarked)
inhibition at 1 µM / %: 7

molecule: CCn1c(NCC2CCCN2)nc2c([N+](=O)[O-])c(Br)c(Br)cc21 (centres unmarked)
inhibition at 1 µM / %: 12

(a) CC(C)n1c(NCCCN)nc2c([N+](=O)[O-])c(Br)c(Br)cc21
(b) CC(C)n1c(N2CCN[C@H](C)C2)nc2c([N+](=O)[O-])c(Br)c(Br)cc21 [Example 22AA]
I need your help: which of the pair a , b has higher inhibition at 1 µM? Your answer should be the label attached to the chosen record.
a

* * *

molecular target: DYRK1 (Homo sapiens (Human), UniProt Q13627); assay: ADP-Glo Kinase Assay, DYRK1; assay type: biochemical; settings: 1 μM compound; read-out: DYRK1A % INH (1 μM)
endpoint: inhibition at 1 µM (%)

molecule: CCn1c(N2CCC(N)CC2)nc2c(C#N)c(Br)c(Br)cc21
measured: 23

(I) CCn1c(NCC(O)CN)nc2c([N+](=O)[O-])c(Br)c(Br)cc21 (stereo not drawn)
(II) CC(C)n1c(N2CCC[C@H](O)C2)nc2c([N+](=O)[O-])c(Br)c(Br)cc21 [Example 22I]
Hi, I'm comparing two records. Which one has the lower inhibition at 1 µM, I or II ? Your answer should be the label attached to the chosen record.
I
(I: 12%, II: 20%)

* * *

biological target: FLT3wt (Homo sapiens (Human)); experiment: ADP-Glo Kinase Assay, Flt3 wt; format: biochemical; settings: 1 μM compound; read-out: Flt3wt % INH (1 μM)
Sequence (P36888 27-993): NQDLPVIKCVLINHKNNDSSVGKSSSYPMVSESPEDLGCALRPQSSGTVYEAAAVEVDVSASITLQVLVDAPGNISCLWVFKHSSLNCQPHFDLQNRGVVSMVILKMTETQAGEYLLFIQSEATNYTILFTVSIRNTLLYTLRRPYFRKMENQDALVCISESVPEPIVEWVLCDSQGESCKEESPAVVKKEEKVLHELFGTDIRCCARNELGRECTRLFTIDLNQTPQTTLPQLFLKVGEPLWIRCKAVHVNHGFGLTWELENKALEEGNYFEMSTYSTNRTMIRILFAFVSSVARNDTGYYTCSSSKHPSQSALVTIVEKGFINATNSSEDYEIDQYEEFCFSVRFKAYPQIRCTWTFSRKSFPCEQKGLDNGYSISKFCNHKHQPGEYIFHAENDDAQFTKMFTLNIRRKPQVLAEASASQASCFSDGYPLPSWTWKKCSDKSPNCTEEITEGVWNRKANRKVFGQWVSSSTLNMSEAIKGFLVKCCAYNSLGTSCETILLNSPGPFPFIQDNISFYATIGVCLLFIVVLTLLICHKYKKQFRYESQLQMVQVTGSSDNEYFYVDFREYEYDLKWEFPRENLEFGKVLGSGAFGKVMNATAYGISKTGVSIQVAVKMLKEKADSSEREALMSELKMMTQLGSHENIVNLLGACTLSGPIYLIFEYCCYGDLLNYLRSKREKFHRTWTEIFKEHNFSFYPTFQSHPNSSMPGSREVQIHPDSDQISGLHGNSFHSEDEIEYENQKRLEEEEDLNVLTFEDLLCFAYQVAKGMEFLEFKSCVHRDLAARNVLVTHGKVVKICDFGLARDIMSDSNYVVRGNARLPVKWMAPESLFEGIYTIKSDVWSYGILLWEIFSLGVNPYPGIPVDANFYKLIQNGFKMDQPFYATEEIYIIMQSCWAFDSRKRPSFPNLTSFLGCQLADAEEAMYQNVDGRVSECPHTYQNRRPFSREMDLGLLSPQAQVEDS
Structures can show the parent of a compound that is named as a salt.
endpoint: inhibition at 1 µM (%)
The reply should contain only the number, in %.

compound: CCC(C)n1c(N2CCNCC2)nc2c([N+](=O)[O-])c(Br)c(Br)cc21 (stereo not drawn) [Example 2I, hydrochloride]
targetSystem: FLT3wt (Homo sapiens (Human))
unitText: %
inhibition at 1 µM: 89

Query compound follows.
Look at this compound and give its reported inhibition at 1 µM. CC(C)n1c(N2CCNCC2)nc2c([N+](=O)[O-])c(Br)c(Br)cc21 [Example 2A, hydrochloride]
66
